Where do the numbers come from? From patent US4097487A.

Assay: Acute toxicity, up-down method (Experiment III b)
Conditions: in vivo, iv, mouse
MEASURED_QUANTITY: LD50 (mg/kg)

> print(dat)
                                   molecule  measured.quantity  recorded.measurement
1    COc1cc(N)c(Cl)cc1C(=O)NCCN(C)Cc1ccccc1               LD50                    48
2  CN(C)CCCN1c2ccccc2Sc2ccc(Cl)cc21 [Chlorpromazine, reference compound]               LD50                    59
3  COc1cc(N)c(Cl)cc1C(=O)NCC1CCC(C)N1Cc1ccccc1 (stereo not drawn)               LD50                    49

----------
Assay: Cataleptogenic activity (Experiment III a)
Set-up: species or system mouse (male, ICR)
Details: in vivo, sc; mouse, 30 min, fore-limbs hung on horizontal rod for 30 second
ED50 at 0.5 h: recorded values
MEASURED_QUANTITY: ED50 at 0.5 h (mg/kg)

> print(dat)
                                   molecule  measured.quantity  units.of.measure  recorded.measurement
1  CN(C)CCCN1c2ccccc2Sc2ccc(Cl)cc21 [Chlorpromazine, reference compound]      ED50 at 0.5 h             mg/kg                    10
2    COc1cc(N)c(Cl)cc1C(=O)NCCN(C)Cc1ccccc1      ED50 at 0.5 h             mg/kg                    60
3  COc1cc(N)c(Cl)cc1C(=O)NCC1CCC(C)N1Cc1ccccc1 (stereo not drawn)      ED50 at 0.5 h             mg/kg                    30
